system_name: Fes (UniProt P07332)
Sequence (P07332 whole entry, looked up): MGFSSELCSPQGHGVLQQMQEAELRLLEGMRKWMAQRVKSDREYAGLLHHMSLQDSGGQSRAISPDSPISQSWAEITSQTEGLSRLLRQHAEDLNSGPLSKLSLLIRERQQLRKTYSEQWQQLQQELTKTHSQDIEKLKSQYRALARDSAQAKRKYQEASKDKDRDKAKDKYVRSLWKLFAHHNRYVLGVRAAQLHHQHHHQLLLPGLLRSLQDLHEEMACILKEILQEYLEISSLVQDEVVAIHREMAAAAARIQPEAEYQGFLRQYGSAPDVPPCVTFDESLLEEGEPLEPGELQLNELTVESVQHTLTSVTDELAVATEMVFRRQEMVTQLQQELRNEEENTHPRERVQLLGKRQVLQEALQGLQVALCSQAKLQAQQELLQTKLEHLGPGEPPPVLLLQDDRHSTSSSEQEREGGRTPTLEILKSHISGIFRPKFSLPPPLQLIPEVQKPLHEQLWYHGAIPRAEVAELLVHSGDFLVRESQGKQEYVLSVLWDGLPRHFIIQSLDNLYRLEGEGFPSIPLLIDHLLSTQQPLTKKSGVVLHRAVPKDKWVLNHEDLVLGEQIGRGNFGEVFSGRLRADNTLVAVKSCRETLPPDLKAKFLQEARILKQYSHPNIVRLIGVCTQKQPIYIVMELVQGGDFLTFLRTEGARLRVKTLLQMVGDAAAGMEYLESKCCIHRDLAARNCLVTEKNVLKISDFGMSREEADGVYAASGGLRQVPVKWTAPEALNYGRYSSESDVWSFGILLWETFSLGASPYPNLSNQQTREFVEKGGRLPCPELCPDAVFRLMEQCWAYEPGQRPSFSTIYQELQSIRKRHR
assay_info: phosphorylation enrichment, bacterial display (enrichment ratio); higher = better substrate or ligand; peptides without Tyr show the background
Given measured phosphorylation enrichment, output true (1) if it is greater than or equal to 1 and false (0) if not.

[[record]]
residue_string = "SGVSFYINLCQ [IGF2R_Y2025_N2020S_YF]"
class_name = "true (1)"

[[record]]
residue_string = "ASPKSYPSQKH [CAP2_Y316_T311A]"
class_name = "false (0)"

[[record]]
residue_string = "LNCDRYSVGLL [PDE6A_Y275]"
class_name = "true (1)"

[[record]]
residue_string = "HNVAIYEGFAL [ACTC1_Y168_P166A_YF]"
class_name = "true (1)"

[[record]]
residue_string = "KGNMYYENSYA [EGFR_Y113_R108K]"
class_name = "false (0)"

[[record]]
residue_string = "LNERHYGGLTD [PGAM2_Y92_G97D]"
class_name = "false (0)"

[[record]]
residue_string = "KGPNVCKKTVN [REV3L_Y1156_Y1156C]"
class_name = "false (0)"

[[record]]
residue_string = "AFLGEYIPTVF [RAC2_Y32_P29L]"
class_name = "true (1)"

[[record]]
residue_string = "QMIETYFDFRL [NSMF_Y506]"
class_name = "true (1)"

[[record]]
residue_string = "RAIDMYLMGCF [GABRB2_Y308_K303R]"
class_name = "true (1)"

[[record]]
residue_string = "LITTLYISFLG [KCNQ1_Y267_G269S]"
class_name = "true (1)"

[[record]]
residue_string = "PADCRYYAFPQ [GAMT_Y222]"
class_name = "true (1)"

[[record]]
residue_string = "PTDGVYVMPTV [MYO7A_Y1668_S1666G]"
class_name = "true (1)"

[[record]]
residue_string = "QGLRLYRTHLA [BTK_Y617_P619T]"
class_name = "false (0)"

[[record]]
residue_string = "HNQDGYSFLSR [LDLR_Y845_P848L_YF]"
class_name = "false (0)"

[[record]]
residue_string = "YSDPSYVKQME [CDC5L_Y464]"
class_name = "false (0)"


* * *

Test system: c-Abl (mouse)
assay_info: phosphorylation enrichment, bacterial display (enrichment ratio); higher = better substrate or ligand; peptides without Tyr show the background
Using phosphorylation enrichment as the sorting value, the categories are range 1: < 0.6; range 2: ≥ 0.6 and < 0.9; range 3: ≥ 0.9

[[record]]
residue_string = "MKGDYYRYLAE [YWHAG_Y131]"
class_name = "range 2"

[[record]]
residue_string = "KPPFSYNALIR [FOXG1_Y186_M191R]"
class_name = "range 1"

[[record]]
residue_string = "IRKDLYANNVL [ACTA2_Y296]"
class_name = "range 1"

[[record]]
residue_string = "VQEDIYDEFVE [ALDH2_Y332]"
class_name = "range 2"

[[record]]
residue_string = "FLRKEYGGLNV [CBR3_Y81]"
class_name = "range 1"

[[record]]
residue_string = "IHSGIYFKPES [L2HGDH_Y102_YF]"
class_name = "range 3"

[[record]]
residue_string = "QNTGNYYDLYG [PTPN11_Y62_D61N]"
class_name = "range 3"

[[record]]
residue_string = "GKGGSYSKAES [HLA-E_Y341_W346S]"
class_name = "range 1"

[[record]]
residue_string = "EFISENCGEII [EZH2_Y641_Y641N]"
class_name = "range 2"

[[record]]
residue_string = "VTSLKYSTPPY [BRIP1_Y916_S919P]"
class_name = "range 1"

[[record]]
residue_string = "GMKIVYVFVKK [DNAI2_Y5_E2K_YF]"
class_name = "range 2"

[[record]]
residue_string = "LESTLYESSVV [TRPV4_Y91]"
class_name = "range 3"

[[record]]
residue_string = "VTPVMYTFDEF [COL10A1_Y623_G618V_YF]"
class_name = "range 2"

[[record]]
residue_string = "RARIRYAQEHD [NSD1_Y1987]"
class_name = "range 2"

[[record]]
residue_string = "HEEDNYIEMIP [NWD2_Y566_L569M]"
class_name = "range 3"

[[record]]
residue_string = "SVIKEYQIRQV [USH2A_Y3623_G3618S]"
class_name = "range 1"

[[record]]
residue_string = "GGGMFYPLDLF"
class_name = "range 2"

[[record]]
residue_string = "GGFNNYGFGND [HNRNPH3_Y159_YF]"
class_name = "range 1"

[[record]]
residue_string = "AHLLQYNHRVK [LGALS3_Y221]"
class_name = "range 2"

[[record]]
residue_string = "LVQAEYWHDRI [PPT1_Y185_P189R]"
class_name = "range 2"

[[record]]
residue_string = "SDVWSYGVTMW [ZAP70_Y525]"
class_name = "range 3"

[[record]]
residue_string = "LSALDYKIFFF [WDPCP_Y210_YF]"
class_name = "range 2"

[[record]]
residue_string = "ADKSAYLMGVN [MYH7_Y386_L390V]"
class_name = "range 1"

[[record]]
residue_string = "SLEKSYELPDG [ACTA1_Y242]"
class_name = "range 2"

[[record]]
residue_string = "EASEQHLTKAS [NRCAM_Y739_Y739H]"
class_name = "range 2"

[[record]]
residue_string = "FTYDPYSEEDP [IL2RB_Y387]"
class_name = "range 2"

[[record]]
residue_string = "YASALYRQRRS [FGF11_Y162]"
class_name = "range 2"

[[record]]
residue_string = "DFFDLYGGQKF [PTPN11_Y66_E69Q_YF]"
class_name = "range 2"

[[record]]
residue_string = "FSKDIYKRVTG [PANK2_Y405_N404I_YF]"
class_name = "range 1"

[[record]]
residue_string = "GNHVSYYQSDG [CACNA1C_Y1757]"
class_name = "range 2"

[[record]]
residue_string = "RFWPRYVKVGS [NOG_Y172]"
class_name = "range 2"

[[record]]
residue_string = "AFLGEYIPTVF [RAC2_Y32_P29L]"
class_name = "range 3"

[[record]]
residue_string = "QLQQAYQEAFE [YWHAZ_Y149_S145L]"
class_name = "range 3"

[[record]]
residue_string = "MKGDYYRSLAE [YWHAG_Y131_Y133S]"
class_name = "range 1"

[[record]]
residue_string = "GEETDYTPVWC [UROD_Y30]"
class_name = "range 2"

[[record]]
residue_string = "PRRRFYVVACD [RNASE3_Y134_G130R]"
class_name = "range 2"

[[record]]
residue_string = "WQQQSYLFSGI [CTNNB1_Y30_D32Y_YF]"
class_name = "range 2"

[[record]]
residue_string = "QWPGPYDRPGA [HNRNPH2_Y210_R206W]"
class_name = "range 2"

[[record]]
residue_string = "LATINYPFEKG [NDUFS8_Y84_P79L]"
class_name = "range 2"

[[record]]
residue_string = "GGGGGYNRSSG [FUS_Y232]"
class_name = "range 1"

[[record]]
residue_string = "QNAGDYFDLFG [PTPN11_Y62_T59A_YF]"
class_name = "range 3"

[[record]]
residue_string = "LWPIWYRCRRP [MRGPRX1_Y130_H133R]"
class_name = "range 1"

[[record]]
residue_string = "YCRHNYGVVES [HLA-DRB1_Y112]"
class_name = "range 2"


* * *

system_name: Grb2 SH2 (UniProt P62993)
Sequence (P62993 whole entry, looked up): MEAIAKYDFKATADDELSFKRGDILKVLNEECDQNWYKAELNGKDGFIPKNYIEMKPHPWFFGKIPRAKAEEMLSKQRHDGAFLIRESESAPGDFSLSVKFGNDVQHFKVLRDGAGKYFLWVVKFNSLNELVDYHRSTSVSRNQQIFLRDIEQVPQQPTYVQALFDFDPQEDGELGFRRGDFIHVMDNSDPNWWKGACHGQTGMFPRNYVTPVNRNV
assay_info: SH2 binding enrichment of the phosphorylated peptide, bacterial display (enrichment ratio); higher = better substrate or ligand; peptides without Tyr show the background
Recorded SH2 binding enrichment, one value per entry.
assay_endpoint: SH2 binding enrichment

[[record]]
residue_string = "PEVRRYVLPLN [RPE65_Y368]"
reading = 0.807

[[record]]
residue_string = "AVNNFYAAKKT [CCDC178_Y422_D420N]"
reading = 0.965

[[record]]
residue_string = "FGYPGYQSKHY [TIMP3_Y177]"
reading = 0.895

[[record]]
residue_string = "KNNDGYTDFAE [MCFD2_Y135_I136T_YF]"
reading = 0.869

[[record]]
residue_string = "GYEEAYSVFKK [PAFAH1B1_Y28]"
reading = 0.831

[[record]]
residue_string = "PKEQRYSFLQN [GH1_Y68_K67R]"
reading = 1.04

[[record]]
residue_string = "EFLHKYKGFKI [SYNE1_Y6953_Q6951H_YF]"
reading = 0.832

[[record]]
residue_string = "EQFELYCEMGS [CBL_Y371_YF]"
reading = 0.934

[[record]]
residue_string = "SVVVPYEPPGV [TP53_Y220_E224G]"
reading = 0.826

[[record]]
residue_string = "FLRKEYGGLNV [CBR3_Y81]"
reading = 0.667

[[record]]
residue_string = "VKPENYWRLDI [VHL_Y175_R176W]"
reading = 0.902

[[record]]
residue_string = "GEEIKYTLWLS [OTC_Y55_M56T]"
reading = 0.725

[[record]]
residue_string = "TTPGPHRSIYF [MPG_Y71_Y71H]"
reading = 0.71

[[record]]
residue_string = "KGPNVCKKTVN [REV3L_Y1156_Y1156C]"
reading = 1.38

[[record]]
residue_string = "LESTLYESSVV [TRPV4_Y91]"
reading = 0.708

[[record]]
residue_string = "LDAFIYNAAVL [GRIN2A_Y730_D731N]"
reading = 0.927

[[record]]
residue_string = "KGNMYYENSYA [EGFR_Y113_R108K]"
reading = 10.2

[[record]]
residue_string = "YRAPGYREVVI [TNS2_Y673]"
reading = 1.11

[[record]]
residue_string = "ESMNIYLQTSP [NAT1_Y208_T207I]"
reading = 0.829

[[record]]
residue_string = "SVVVPYGPPEV [TP53_Y220_E221G]"
reading = 0.835

[[record]]
residue_string = "GEDEPYSEPYA [APBA1_Y183]"
reading = 0.903

[[record]]
residue_string = "GSPAPYRRRKR [MBD1_Y403_P401A]"
reading = 0.594

[[record]]
residue_string = "YLEKYYKFGCR [NNMT_Y25_S29C]"
reading = 0.938

